- Species: Homo sapiens
- method: Selectivity ratio of IC50 for human CTPS2 to IC50 for human CTPS1 by RapidFire/MS analysis
readoutName: Ratio IC50

1. CCOc1cncc(-c2ccc(NC(=O)C(CCOC)c3ccnc(NS(=O)(=O)C4CC4)n3)c(F)c2)n1 (centres undefined); > 60
2. CCOc1cncc(-c2ccc(NC(=O)C(C)(C)c3ccnc(NS(=O)(=O)C4CC4)n3)c(C#N)c2)n1; 2
3. CC(C)Oc1cncc(-c2ccc(C(=O)NC(C)(C)c3cncc(NS(=O)(=O)C4CC4)n3)c(F)c2)n1; 2
4. CCOc1cncc(-c2ccc(NC(=O)C3(c4ccnc(NS(=O)(=O)C5CC5)n4)CCC(=O)CC3)nc2)n1; > 60
5. CCOc1cncc(-c2ccc(NC(=O)C3(c4ccnc(NS(=O)(=O)C5CC5)n4)CCOCC3)c(F)c2)n1; > 60
6. CCOc1cncc(-c2ccc(NC(=O)C(F)(CC)c3ccnc(NS(C)(=O)=O)n3)nc2)n1 (centres undefined); > 60
7. CCOc1cncc(-c2cnc(NC(=O)C(CC)c3ccnc(NS(=O)(=O)C4CC4)n3)c(C)c2)n1 (centres undefined); 2
8. CCOc1cncc(-c2ccc(C(=O)NC(CC)c3ccnc(NS(=O)(=O)C4CC4)n3)c(F)c2)n1 (centres undefined); > 60
9. CCOc1cncc(-c2ccc(NC(=O)C(C)(CC)c3ccnc(NS(=O)(=O)C4CC4)n3)nc2)n1 (centres undefined); > 60

###

- Species: Homo sapiens
- method: Selectivity ratio of IC50 for human CTPS2 to IC50 for human CTPS1 by RapidFire/MS analysis
readoutName: Ratio IC50

1) CCOc1cncc(-c2ccc(NC(=O)C(C)(C)c3ccnc(NS(=O)(=O)C4CC4)n3)c(F)c2)n1; 2
2) CCOc1cncc(-c2ccc(NC(=O)C(CC)c3ccnc(NS(=O)(=O)C4CC4)n3)cc2)n1 (configuration not stated); 30
3) CCOc1cncc(-c2ccc(NC(=O)C(C)(C)c3ccnc(NS(C)(=O)=O)n3)nc2)n1; 30
4) CCOc1cncc(-c2ccc(NC(=O)C(CC)c3cccc(NS(=O)(=O)C4CC4)n3)cc2)n1 (configuration not stated); 30
5) CCOc1cncc(-c2ccc(NC(=O)C(CC)c3ccnc(NS(=O)(=O)C4CC4)n3)c(C)c2)n1 (configuration not stated); 2
6) CC(C)(C(=O)Nc1ccc(-c2cncc(C3CC3)n2)cn1)c1ccnc(NS(=O)(=O)C2CC2)n1; 30
7) CCOc1cncc(-c2ccc(NC(=O)Cc3ccnc(NS(=O)(=O)C4CC4)n3)cc2)n1; 30
8) CCC(C(=O)Nc1ncc(-c2cncc(OC)n2)cc1F)c1ccnc(NS(=O)(=O)C2CC2)n1 (configuration not stated); 2
9) CCOc1cncc(-c2ccc(NC(=O)C(C)(OC)c3cncc(NS(=O)(=O)C4CC4)n3)nc2)n1 (stereo in doubt; form 2); 30
10) CCC(C(=O)Nc1ccc(-c2cncc(OC)n2)cc1F)c1ccnc(NS(=O)(=O)C2CC2)n1 (configuration not stated); 2
11) CCOc1cncc(-c2ccc(NC(=O)C(C)(C)c3ccnc(NS(=O)(=O)CC)n3)cc2)n1; 30
12) CCOc1cncc(-c2ccc(NC(=O)C3(c4ccnc(NS(=O)(=O)C5CC5)n4)CCC(O)CC3)nc2)n1 (single isomer, unassigned); 2
13) O=C(Cc1ccnc(NS(=O)(=O)C2CC2)n1)Nc1ccc(-c2cccnc2)cc1; 30
14) CCC(C(=O)Nc1ccc(-c2cncc(Cl)c2)cc1)c1ccnc(NS(=O)(=O)C2CC2)n1 (configuration not stated); 2
15) CCOc1cncc(-c2ccc(NC(=O)C(F)(CC)c3ccnc(NS(=O)(=O)C4CC4)n3)nc2)n1 (stereo in doubt; form 1); 30
16) CCOc1cncc(-c2ccc(NC(=O)C(C)(C)c3nc(NS(=O)(=O)C4CC4)ncc3C)cc2)n1; 2
17) CCOc1cncc(-c2cnc(NC(=O)C(CC)c3ccnc(NS(=O)(=O)C4CC4)n3)c(F)c2)n1 (configuration not stated); 30
18) CC(C)(C(=O)Nc1ccc(-c2cncc(C3CC3)n2)cc1F)c1ccnc(NS(=O)(=O)C2CC2)n1; 2
19) CCOc1cncc(-c2ccc(NC(=O)C(F)(CC)c3cncc(NS(=O)(=O)C4CC4)n3)nc2)n1 (stereo in doubt; form 3); 2

###

- Species: Homo sapiens
- method: Selectivity ratio of IC50 for human CTPS2 to IC50 for human CTPS1 by RapidFire/MS analysis
readoutName: Ratio IC50

1. CCOc1cncc(-c2ccc(NC(=O)C(CC)c3cccc(NS(=O)(=O)C4CC4)n3)nc2)n1 (stereo unspecified); 30
2. CC(C)Oc1cncc(-c2ccc(NC(=O)C(C)(C)c3ccnc(NS(=O)(=O)C4CC4)n3)c(F)c2)n1; 2
3. CCOc1cncc(-c2ccc(NC(=O)C(F)(CC)c3ccnc(NS(=O)(=O)C4CC4)n3)nc2)n1 (stereo in doubt; form 2); 2
4. CCOc1cncc(-c2ccc(NC(=O)C(CCOC)c3ccnc(NS(=O)(=O)C4CC4)n3)cc2)n1 (stereo unspecified); 30
5. CC(C)Oc1cncc(-c2ccc(NC(=O)Cc3ccnc(NS(=O)(=O)C4CC4)n3)cc2)n1; 30
6. CC(C)(NC(=O)c1ccc(-c2cncc(C(F)(F)F)n2)cc1)c1cncc(NS(=O)(=O)C2CC2)n1; 2
7. CCOc1cncc(-c2ccc(NC(=O)C(F)(CC)c3cncc(NS(=O)(=O)C4CC4)n3)nc2)n1 (stereo in doubt; form 1); 30

###

- Species on record: Homo sapiens
- method: Selectivity ratio of IC50 for human CTPS2 to IC50 for human CTPS1 by RapidFire/MS analysis
readoutName: Ratio IC50

1) CC(C)Oc1cncc(-c2ccc(NC(=O)Cc3ccnc(NS(=O)(=O)C4CC4)n3)c(F)c2)n1; 30
2) CC(C)(C(=O)Nc1ccc(-c2cccnc2)cc1)c1ccnc(NS(=O)(=O)C2CC2)n1; 2
3) CCOc1cncc(-c2ccc(NC(=O)C(C)(C)c3ccnc(NS(=O)(=O)C4CC4)n3)cc2)n1; 2
4) CCOc1cncc(-c2ccc(NC(=O)C(OC)c3ccnc(NS(=O)(=O)C4CC4)n3)cc2)n1 (centres undefined); 2
5) CCOc1cncc(-c2ccc(NC(=O)C(CC)c3ccnc(NS(=O)(=O)C4CC4)n3)nc2)n1 (centres undefined); > 60
6) CC(C)c1cncc(-c2ccc(NC(=O)C(C)(C)c3ccnc(NS(=O)(=O)C4CC4)n3)cc2)n1; 30
7) CCC(C(=O)Nc1ccc(-c2cncc(OC)n2)cn1)c1ccnc(NS(=O)(=O)C2CC2)n1 (centres undefined); > 60
8) CCOc1cncc(-c2ccc(NC(=O)C3(c4ccnc(NS(=O)(=O)C5CC5)n4)CCCC3)nc2)n1; > 60
9) CCOc1cncc(-c2ccc(NC(=O)C(C)(CCOC)c3cncc(NS(=O)(=O)C4CC4)n3)nc2)n1 (centres undefined); > 60

###

Each item that follows carries a reported Ratio IC50.
- Species on record: Homo sapiens
- method: Selectivity ratio of IC50 for human CTPS2 to IC50 for human CTPS1 by RapidFire/MS analysis
readoutName: Ratio IC50

1. CCC(C(=O)Nc1ccc(-c2cncc(C(F)(F)F)n2)cc1)c1ccnc(NS(=O)(=O)C2CC2)n1 (stereo not drawn); 2
2. CCC(C(=O)Nc1ccc(-c2cncc(C(F)(F)F)n2)cn1)c1ccnc(NS(=O)(=O)C2CC2)n1 (stereo not drawn); 30
3. CCOc1cncc(-c2ccc(NC(=O)C(C)(C)c3nc(NS(=O)(=O)C4CC4)ncc3F)cc2)n1; 30
4. CCOc1cncc(-c2ccc(NC(=O)C(CC)c3ccnc(NS(=O)(=O)C4CC4)n3)c(F)c2)n1 (stereo not drawn); 2
